Provenance of the data: the supplement of paper PMC9112550

System: Escherichia coli TOP10;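 also: peptides expressed intracellularly from a pBAD plasmid library in pooled LB shake-flask culture, induced with 0.3% L-arabinose, DNA abundance read by NGS, three biological replicates, DESeq2 with apeglm shrinkage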
experiment.summary: shrunken log2 fold change of peptide-encoding DNA abundance (4.5 h post-induction vs induction); higher = less antimicrobial activity (less host growth inhibition)
condition.parameters: time post-induction: 4.5 h; library: site-saturation at positions 5, 18, 19, 20
Returns one of y or n; y when shrunken log2 fold change is >= 0.02.

sequence.string	label.value
RRIRARPPRLPRPRPRPPDLPRP	y
RRIRERPPRLPRPRPRPGRVPRP	y
RRIRNRPPRLPRPRPRPIFKPRP	n
RRIRLRPPRLPRPRPRPKVPPRP	y
RRIRGRPPRLPRPRPRPQNIPRP	n
RRIRKRPPRLPRPRPRPTFCPRP	y
RRIRRRPPRLPRPRPRPMKMPRP	y
RRIRQRPPRLPRPRPRPFTMPRP	n
RRIRNRPPRLPRPRPRPADEPRP	n
RRIRHRPPRLPRPRPRPNLSPRP	y
RRIRARPPRLPRPRPRPSRKPRP	n
RRIRHRPPRLPRPRPRPERMPRP	n
RRIRWRPPRLPRPRPRPGEAPRP	y
RRIRSRPPRLPRPRPRPWRHPRP	n
RRIRNRPPRLPRPRPRPYADPRP	n
RRIRPRPPRLPRPRPRPLWFPRP	y
RRIRKRPPRLPRPRPRPMKYPRP	n
RRIRQRPPRLPRPRPRPPLQPRP	y
RRIRMRPPRLPRPRPRPWEHPRP	y
RRIRFRPPRLPRPRPRPNPKPRP	y
RRIRARPPRLPRPRPRPVDCPRP	y
RRIRHRPPRLPRPRPRPATRPRP	y
RRIRGRPPRLPRPRPRPNCMPRP	y
RRIRRRPPRLPRPRPRPYRTPRP	n
RRIRNRPPRLPRPRPRPNQFPRP	n
RRIRARPPRLPRPRPRPYGEPRP	n
RRIRYRPPRLPRPRPRPVAYPRP	n
RRIRHRPPRLPRPRPRPERRPRP	y
RRIRDRPPRLPRPRPRPTYHPRP	n
RRIRHRPPRLPRPRPRPMGMPRP	n
RRIRFRPPRLPRPRPRPCYGPRP	n
RRIRYRPPRLPRPRPRPATKPRP	y
RRIRARPPRLPRPRPRPMEYPRP	n
RRIRFRPPRLPRPRPRPVKTPRP	y
RRIRLRPPRLPRPRPRPSEHPRP	n
RRIRMRPPRLPRPRPRPCFHPRP	n
RRIRIRPPRLPRPRPRPMMKPRP	n
RRIRPRPPRLPRPRPRPSLIPRP	n
RRIRERPPRLPRPRPRPMPTPRP	n
RRIRIRPPRLPRPRPRPHGEPRP	n
RRIRKRPPRLPRPRPRPQHLPRP	y
RRIRTRPPRLPRPRPRPEKQPRP	n
RRIRYRPPRLPRPRPRPSLAPRP	y
RRIRVRPPRLPRPRPRPILEPRP	y
RRIRQRPPRLPRPRPRPREIPRP	y
RRIRERPPRLPRPRPRPHIRPRP	n
RRIRIRPPRLPRPRPRPMYSPRP	n
RRIRSRPPRLPRPRPRPKMCPRP	n
RRIRLRPPRLPRPRPRPHHDPRP	n
RRIRTRPPRLPRPRPRPQMNPRP	n
RRIRDRPPRLPRPRPRPYDPPRP	n
RRIRCRPPRLPRPRPRPWEDPRP	y
RRIRHRPPRLPRPRPRPLDWPRP	y
RRIRHRPPRLPRPRPRPGTLPRP	n
RRIRHRPPRLPRPRPRPLKIPRP	n
RRIRCRPPRLPRPRPRPEFKPRP	y
RRIRLRPPRLPRPRPRPKRCPRP	n
RRIRVRPPRLPRPRPRPRIMPRP	n
RRIRGRPPRLPRPRPRPWASPRP	n
RRIRVRPPRLPRPRPRPMAHPRP	n
RRIRWRPPRLPRPRPRPVCAPRP	y
RRIRRRPPRLPRPRPRPIYNPRP	n
RRIRHRPPRLPRPRPRPTNPPRP	n
